system: NCI/ADR-RES ovarian; test: NCI tumour cell line growth inhibition, 48 h
Where a SMILES comes first, the peptide text is derived from it. The star is where a group is joined. Boc = CC(C)(C)OC(=O)*; OBn = c1ccc(CO*)cc1
Listed below: TGI values for each entry.

q: GET /values?readout=TGI&item= O=C1C(=C(I)I)c2ccccc2-c2ccccc21
a: 12.2 µM

q: # query: TGI of entry O=C1CC(C(=O)N2CCCCC2)n2c(=O)n(-c3ccccc3)c(=O)n2C1 (stereo unspecified)
a: > 100 µM

q: Any idea what TGI was measured for CCOC(=O)/C=C(\C(=O)OCC)n1ccc(=O)n(CC(=O)OCC)c1=O ?
a: 60.8 µM

q: Value lookup for TGI; key = O=C(N/N=C/c1cc([N+](=O)[O-])ccc1O)c1cccc2ccccc12
a: 51.6 µM

q: Field request: TGI | item: CC(NC(=O)C(Cc1ccccc1)NC(=O)C(Cc1ccccc1)NC(=O)OC(C)(C)C)C(=O)OCc1ccccc1 (stereo not drawn) (Boc-Phe-Phe-Ala-OBn; configuration not given here)
a: > 100 µM

q: Give its TGI value. Item: Cn1c(=O)c2c(ncn2CCCCOc2ccc3c(c2)[n+]([O-])nc(N)[n+]3[O-])n(C)c1=O
a: > 100 µM
